target: Rhodesain (Trypanosoma brucei rhodesiense); test: Inhibition of Trypanosoma brucei rhodesiense recombinant rhodesain by standard fluorescence assay; conditions: TDE = time-dependent effect

{"compound-structure": "O=C(/C=C/C(=O)N[C@@H](Cc1ccccc1)C(=O)OCc1ccccc1)N[C@@H](Cc1ccccc1)C(=O)OCc1ccccc1", "Time-dependent inhibition (qualitative)": "tde"}
{"compound-structure": "CCOC(=O)/C=C/[C@@H](CCC(=O)NC(c1ccccc1)(c1ccccc1)c1ccccc1)NC(=O)[C@@H](NC(=O)OC(C)(C)C)c1ccccc1", "Time-dependent inhibition (qualitative)": "tde"}
{"compound-structure": "CCOC(=O)/C=C/[C@H](CCC(=O)NC(c1ccccc1)(c1ccccc1)c1ccccc1)NC(=O)OC(C)(C)C", "Time-dependent inhibition (qualitative)": "tde"}
{"compound-structure": "CCOC(=O)/C=C/[C@H](CCC(=O)NC(c1ccccc1)(c1ccccc1)c1ccccc1)NC(=O)[C@@H](NC(=O)OC(C)(C)C)c1ccccc1", "Time-dependent inhibition (qualitative)": "tde"}

* * *

test: Cytotoxicity against mouse J774.1 cells; assay type: cell-based
result-type: IC50 (µM)
Give a bare numeral; the unit µM is implied.

{"compound-structure": "CCOC(=O)/C=C/[C@@H](CCC(=O)NC(c1ccccc1)(c1ccccc1)c1ccccc1)NC(=O)[C@@H](NC(=O)OC(C)(C)C)c1ccccc1", "IC50 / µM": 60}
{"compound-structure": "O=C(/C=C\\C(=O)N[C@@H](Cc1ccccc1)C(=O)OCc1ccccc1)N[C@@H](Cc1ccccc1)C(=O)O", "IC50 / µM": 31}
{"compound-structure": "C[C@H](NC(=O)[C@H](Cc1ccccc1)NC(=O)/C=C\\C(=O)N[C@@H](Cc1ccccc1)C(=O)OCc1ccccc1)C(=O)O", "IC50 / µM": 32}
{"compound-structure": "CCOC(=O)/C=C/C(=O)N[C@@H](Cc1ccccc1)C(=O)OCc1ccccc1", "IC50 / µM": 3.5}
{"compound-structure": "CCOC(=O)/C=C/CN[C@@H](Cc1ccccc1)C(=O)OCc1ccccc1", "IC50 / µM": 36.1}

Now turn to the next molecule.
The molecule C/C=C/C(=O)N[C@@H](Cc1ccccc1)C(=O)OCc1ccccc1 showed IC50 equal to 45.2

* * *

test: Inhibition of Plasmodium falciparum recombinant falcipain-3 by standard fluorescence assay
result-type: Ki (µM)
Give a bare numeral; the unit µM is implied.

Worked cases, answers included:
{"compound-structure": "CCOC(=O)/C=C\\C(=O)N[C@@H](Cc1ccccc1)C(=O)N[C@@H](C)C(=O)N[C@@H](CC(C)C)C(=O)OCc1ccccc1", "Ki / µM": 36.8}
{"compound-structure": "CCOC(=O)/C=C/C(=O)N[C@@H](CCC(=O)NC(c1ccccc1)(c1ccccc1)c1ccccc1)C(=O)OC", "Ki / µM": 14.7}
{"compound-structure": "C[C@H](NC(=O)[C@H](Cc1ccccc1)NC(=O)/C=C\\C(=O)N[C@@H](Cc1ccccc1)C(=O)OCc1ccccc1)C(=O)O", "Ki / µM": 42.2}
{"compound-structure": "CC(C)C[C@H](NC(=O)[C@H]1O[C@@H]1C(=O)O)C(=O)NCCCCN=C(N)N", "Ki / µM": 0.22}
{"compound-structure": "O=C(/C=C/C(=O)N[C@@H](Cc1ccccc1)C(=O)OCc1ccccc1)N[C@@H](Cc1ccccc1)C(=O)OCc1ccccc1", "Ki / µM": 2.8}

The compound CCOC(=O)/C=C/COC(=O)[C@H](CC(N)=O)NC(=O)OC(C)(C)C showed Ki equal to 58

The compound CCOC(=O)/C=C/CN[C@@H](CCC(N)=O)C(=O)N[C@H](C(=O)N[C@H](C(=O)N[C@@H](C)C(=O)OCc1ccccc1)C(C)C)C1CCCCC1 showed Ki equal to 28.4

The compound CCOC(=O)/C=C/[C@H](CCC(=O)NC(c1ccccc1)(c1ccccc1)c1ccccc1)NC(=O)OC(C)(C)C showed Ki equal to 8.2

The compound O=C(O)/C=C\C(=O)N[C@@H](Cc1ccccc1)C(=O)OCc1ccccc1 showed Ki equal to 43

The compound CCOC(=O)/C=C/[C@H](CCC(=O)NC(c1ccccc1)(c1ccccc1)c1ccccc1)NC(=O)[C@@H](NC(=O)OC(C)(C)C)c1ccccc1 showed Ki equal to 1.4

The compound CCOC(=O)/C=C/COC(=O)[C@H](CCC(N)=O)NC(=O)[C@H](CC(C)C)NC(=O)[C@H](C)NC(=O)OC(C)(C)C showed Ki equal to 23.9

The compound CCOC(=O)/C=C\[C@H](Cc1ccccc1)NC(=O)OC(C)(C)C showed Ki equal to 198

The compound CCOC(=O)/C=C/C(=O)N[C@@H](Cc1ccccc1)C(=O)OCc1ccccc1 showed Ki equal to 65.9
